Taken from paper PMC7796031.

Provide the reported activation at 10 µM of each item.
- assayed_system: Constitutive androstane receptor (CAR) (Homo sapiens)
- Construct: The pGL4-gtPBREM plasmid was transfected into Hep3B cells; endogenous in cells
- experiment: In vitro CAR activation screening assay (UGT1A1 promoter gtPBREM-pGL4 luciferase reporter in Hep3B-gtPBREM cells)
- Type: cell-based
- assay_conditions: Table 1; 10 μM; (luminescence of compound − luminescence of scoparone)/luminescence of scoparone × 100%; read-out: CAR Activation Fold

CC(C)=CCOc1cccc2oc(=O)ccc12; -5%
CC(C)=CCCC(C)=CCOc1cccc2oc(=O)ccc12; -18%
CC(C)=CCCC(C)=CCOc1ccc2ccc(=O)oc2c1; -13%
COc1cccc2oc(=O)ccc12; -20%
C=CCOc1cccc2oc(=O)ccc12; -15%
O=c1ccc2c(O)cccc2o1 [Compound 1, 5-hydroxycoumarin]; 6%

List the reported activation at 10 µM of each compound below.
1. CC(=O)Oc1cccc2oc(=O)ccc12
2. CC(=O)Oc1ccc2ccc(=O)oc2c1
3. CC(C)=CCCC(C)=CCOc1cccc2ccc(=O)oc12
4. CC(C)=CCCC(C)=CCCC(C)=CCOc1cccc2ccc(=O)oc12
5. CC(C)=CCOc1cccc2ccc(=O)oc12
6. C=CCOc1ccc2oc(=O)ccc2c1
7. O=c1ccc2cc(O)ccc2o1 [Compound 9, 6-hydroxycoumarin]

Out:
-32%
-37%
-30%
19%
2%
-17%
-8%

Consider the following items and state reported activation at 10 µM for each.
1. CC(C)=CCOc1ccc2oc(=O)ccc2c1
2. O=c1ccc2ccc(O)cc2o1
3. CC(C)=CCOc1ccc2ccc(=O)oc2c1

Out:
22%
-1%
-35%

Consider the following items and state reported activation at 10 µM for each.
1. CCCCOc1cccc2ccc(=O)oc12
2. CC(C)=CCCC(C)=CCCC(C)=CCOc1ccc2oc(=O)ccc2c1
3. O=c1ccc2cccc(O)c2o1 [Compound 27, 8-hydroxycoumarin]
4. CC(C)=CCCC(C)=CCCC(C)=CCOc1ccc2ccc(=O)oc2c1
5. CC(C)=CCCC(C)=CCOc1ccc2oc(=O)ccc2c1

Out:
1. 4%
2. -41%
3. 40%
4. -29%
5. 18%

====

- experiment: Preliminary pharmacokinetic study, plasma concentration by RP-HPLC-fluorescence
- Type: in vivo, C57BL/6 mice
- assay_conditions: Table S1, Study 1 mouse 2, dose given 0.2 mg i.p., 60 min
parameter: Blood concentration, Cal. Conc. (ng/mL)
Give bare numbers, in ng/mL.

In: Write down Blood concentration, Cal. Conc. measured for item `COc1cc2ccc(=O)oc2cc1OC`
Out: 260

====

- assayed_system: Constitutive androstane receptor (CAR) (Homo sapiens, UniProt Q14994)
- Construct: The pGL4-gtPBREM plasmid was transfected into Hep3B cells; endogenous in cells
- Sequence (Q14994 1-352): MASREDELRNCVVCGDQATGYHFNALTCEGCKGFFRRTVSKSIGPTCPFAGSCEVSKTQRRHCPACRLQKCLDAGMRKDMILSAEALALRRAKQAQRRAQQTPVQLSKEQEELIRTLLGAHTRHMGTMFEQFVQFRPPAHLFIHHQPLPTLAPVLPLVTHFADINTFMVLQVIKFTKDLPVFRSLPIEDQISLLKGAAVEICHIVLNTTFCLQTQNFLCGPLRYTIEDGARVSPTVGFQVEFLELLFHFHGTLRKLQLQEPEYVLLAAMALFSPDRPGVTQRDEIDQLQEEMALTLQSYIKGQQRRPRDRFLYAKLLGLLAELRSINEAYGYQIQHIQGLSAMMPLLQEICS
- experiment: In vitro CAR activation screening assay (UGT1A1 promoter gtPBREM-pGL4 luciferase reporter in Hep3B-gtPBREM cells)
- Assay type: cell-based
- assay_conditions: Table 3; 10 μM; (luminescence of compound − luminescence of scoparone)/luminescence of scoparone × 100%; read-out: CAR Activation Fold
Assign activation at 10 µM to each entry below.
Value and unit, in that order.

Consider the reported activation at 10 µM for these compounds:
COc1cc2ccc(=O)oc2c(OC)c1OC [Compound 58, 6,7,8-trimethoxycoumarin]; 0%
COc1cc(OC)c2ccc(=O)oc2c1OC [Compound 56]; -14%
COc1c2c(c3oc(=O)ccc3c1OC)OCO2 [Compound 60]; 12%

Provide the reported activation at 10 µM of each entry below, same order.
1. COc1cc(OC)c2ccc(=O)oc2c1O [Compound 57, 5,7-dimethoxy-8-hydroxycoumarin]
2. COc1cc2ccc(=O)oc2c2c1OCO2 [Compound 59, 6-Methoxy-7,8-methylenedioxycoumarin]
3. COc1cc2oc(=O)ccc2c(OC)c1OC [Compound 54, 5,6,7-trimethoxycoumarin]

Out:
1: 2%; 2: 36%; 3: -19%
